- Protocol Notes: Oral bioavailability in Beagle dog at 1 mg/kg
- Type: ADME, organism-based, Canis lupus familiaris
- Measurement Parameters: in vivo
Readout Label: bioavailability (%)

COc1ccc(N2CCN(C(=O)[C@@H]3CCCC[C@H]3C(=O)NC3(C#N)CC3)[C@H](C)C2)cc1OC ... 71
COc1ccc(N2CCN(C(=O)[C@@H]3CCCC[C@H]3C(=O)NC3(C#N)CC3)CC2)cc1OC ... 79

###

- Protocol Notes: physchem
- Measurement Parameters: buffer, pH 7.4
Readout Label: logD

[a] Cc1nn(C)c2ccc(N3CCN(C(=O)[C@@H]4CCCC[C@H]4C(=O)NC4(C#N)CC4)[C@H](C)C3)cc12
[b] COc1ccc(N2CCN(C(=O)[C@@H]3CCCC[C@H]3C(=O)NC3(C#N)CC3)CC2)cc1
[c] CS(=O)(=O)c1ccc(N2CCN(C(=O)[C@@H]3CCCC[C@H]3C(=O)NCC#N)CC2)cc1
Prompt line: # order the compounds above by logD, highest value first // format: requested-order list of labels
Response line: a, b, c

[A] COc1cc(N2CCN(C(=O)[C@@H]3CCCC[C@H]3C(=O)NC3(C#N)CC3)[C@H](C)C2)ccc1C1CC1
[B] C[C@@H]1CN(c2ccccc2)CCN1C(=O)[C@@H]1CCCC[C@H]1C(=O)NC1(C#N)CC1
[C] COc1ccc(N2CCN(C(=O)[C@@H]3CCCC[C@H]3C(=O)NC3(C#N)CC3)CC2)cc1OC
Prompt line: Thanks in advance: please rank these 3 entries by logD, highest to lowest. Please respond by ranking the labels in the order requested.
Response line: A, B, C
(A: 3.5, B: 2.4, C: 1.4)

[A] Cc1noc2cc(N3CCN(C(=O)[C@@H]4CCCC[C@H]4C(=O)NC4(C#N)CC4)[C@H](C)C3)ccc12
[B] COc1ccc(N2CCN(C(=O)[C@@H]3CCCC[C@H]3C(=O)NCC#N)CC2)cc1
Prompt line: Please compare: A and B . Report which one has the smaller logD value. Response format: the label of the selected entry.
Response line: B

###

- Assay Target: Cathepsin B (Homo sapiens, UniProt P07858)
- Protocol Notes: Inhibition of human recombinant cathepsin-B using Z-Arg-Arg-AMC as substrate preincubated for 15 mins measured after 1 hr by QFRET assay
pIC50: −log10 of the molar value.
Readout Label: pIC50

// worked examples, pIC50 included
C[C@@H]1CN(c2ccc(S(C)(=O)=O)cc2)C[C@H](C)N1C(=O)[C@@H]1CCCC[C@H]1C(=O)NC1(C#N)CC1 ... 4.60
Cc1nnc(C)c2cc(N3CCN(C(=O)[C@@H]4CCCC[C@H]4C(=O)NC4(C#N)CC4)[C@H](C)C3)ccc12 ... 5.53
COc1ccc(N2CCN(C(=O)[C@@H]3CCCC[C@H]3C(=O)NC3(C#N)CC3)[C@H](C)C2)cc1OC ... 5.73
CS(=O)(=O)c1ccc(N2CCN(C(=O)[C@@H]3CCCC[C@H]3C(=O)NCC#N)CC2)cc1 ... 5.93
CC1(C)CN(c2ccc(S(C)(=O)=O)cc2)CCN1C(=O)[C@@H]1CCCC[C@H]1C(=O)NC1(C#N)CC1 ... 5.45

[A] COc1ccc(N2CCN(C(=O)[C@@H]3CCCC[C@H]3C(=O)NCC#N)CC2)cc1OC
[B] Cc1noc2cc(N3CCN(C(=O)[C@@H]4CCCC[C@H]4C(=O)NC4(C#N)CC4)[C@H](C)C3)ccc12
Prompt line: Given the two records A and B , choose the one whose pIC50 value is lower. To answer, give the label that identifies your chosen option.
Response line: A
(A: 5.90, B: 6.22)
